Value source: patent US20220119513A1

- tested-system: T1, canine TGFβ3 (canine, UniProt A0A8I3S1P1 346-457)
- T1 sequence: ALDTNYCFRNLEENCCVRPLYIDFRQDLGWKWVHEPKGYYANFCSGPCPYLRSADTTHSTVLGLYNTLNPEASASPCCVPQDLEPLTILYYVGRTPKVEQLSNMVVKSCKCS
- test-details: SPR, TGFβ on chip
Listed here: items and their measured Kd.
State just the number; it will be interpreted in nM.

Worked set:
[[record]]
binder = "Can04H09 VH3/VL3 (antibody, V domains shown) VH: EVQLVQSAAEVKKPGASVKVSCKTSGYTFTSSWMNWVQQAPGAGLDWMGQIYPGDGDTNYNGKFKGRVTLTADTSTSTAYMELSSLRAEDTAVYYCARHYDGSTDYWGQGTLVTVSS VL: EIVMTQSPASLSLSQEEKVTITCRASENIYSNLAWYQQKPGQAPKLLIYAATNLADGVPSRFSGSGSGTDFSFTISSLEPEDVAVYYCQHFWGTPYTFGQGTK"
reading_unit = "nM"
reported_measurement = 9.08

[[record]]
binder = "Can04H09 VH2/VL4 (antibody, V domains shown) VH: EVQLVQSAAEVKKPGASVKVSCKTSGYSFTSSWMNWVQQAPGKGLDWMGQIYPGDGDTNYNGKFKGRVTLTADKSTSTAYMELSSLRSEDAAVYYCARHYDGSTDYWGQGTLVTVSS VL: EIVMTQSPASLSLSQGEKVTITCRASENIYSNLAWYQQRPGQAPKLLIYAATNLADGVPSRFSGSGSGTDFSLTISSLEPEDVAVYYCQHFWGTPYTFGQGTK"
reading_unit = "nM"
reported_measurement = 6.03

[[record]]
binder = "Can04H09 VH1/VL4 (antibody, V domains shown) VH: EVQLVQSGAEVKKPGASVKVSCKTSGYTFISSWMNWVRQAPGAGLDWMGQIYPGDGDTNYNGKFKGRVTLTADTSTSTAYMELSSLRAGDIAVYYCARHYDGSTDYWGQGTLVTVSS VL: EIVMTQSPASLSLSQGEKVTITCRASENIYSNLAWYQQRPGQAPKLLIYAATNLADGVPSRFSGSGSGTDFSLTISSLEPEDVAVYYCQHFWGTPYTFGQGTK"
reading_unit = "nM"
reported_measurement = 4.78


Field: next binder
Provide measured Kd value, entry: Can04H09 VH3/VL4 (antibody, V domains shown) VH: EVQLVQSAAEVKKPGASVKVSCKTSGYTFTSSWMNWVQQAPGAGLDWMGQIYPGDGDTNYNGKFKGRVTLTADTSTSTAYMELSSLRAEDTAVYYCARHYDGSTDYWGQGTLVTVSS VL: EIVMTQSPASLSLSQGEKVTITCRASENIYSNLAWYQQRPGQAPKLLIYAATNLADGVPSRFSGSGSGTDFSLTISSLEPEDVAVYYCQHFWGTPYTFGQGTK 6.06
